Reported values of pIC50 for individual entries
System: GM95 cells (UGCG-deficient B16 mutant)
Assay: Cell viability assay (SRB colorimetric)
Assay type: cell-based, mouse
Settings: Mus musculus, read-out: GM95 (IC50), cell growth half-maximal inhibitory concentration
pIC50: −log10 of the molar value.

# Compound, pIC50
measured = [
    ("CN(Cc1cnc2nc(N)nc(N)c2n1)c1ccc(C(=O)N[C@@H](CCC(=O)O)C(=O)O)cc1 [Methotrexate]", 6.43),
    ("CO[C@@]12[C@H](COC(N)=O)C3=C(C(=O)C(C)=C(N)C3=O)N1C[C@@H]1N[C@@H]12", 5.60),
    ("CC(=O)O[C@H]1C(=O)[C@@]2(C)[C@H]([C@H](OC(=O)c3ccccc3)[C@]3(O)C[C@H](OC(=O)[C@H](O)[C@@H](NC(=O)c4ccccc4)c4ccccc4)C(C)=C1C3(C)C)[C@]1(OC(C)=O)CO[C@@H]1C[C@@H]2O", 7.47),
    ("COc1cccc2c1C(=O)c1c(O)c3c(c(O)c1C2=O)C[C@@](O)(C(=O)CO)C[C@@H]3O[C@H]1C[C@H](N)[C@H](O)[C@H](C)O1", 7.03),
]

Source listed as paper PMC4608773.
